test: soluble on expression in E. coli; label from the status in PepcDB or PDB records
readout-type: soluble on expression in E. coli

MGSDKIHHHHHHMYYEKAVQKTINWIESHLHEQISNEDIVNVSSFSKFHFHRIFQKEVGMSVASYIRLRRLANAAAALLYTDHRIIDIALYYQFESQEAFTRTFKKMYHMPPGAYRTFMKRFTSKKEESYMEKKMKGWVLSGSHPFQFEMGIDRENVHQGKASGYLKSTMVQDIGEFATMMQQFKADRYLGKRLRLSSFIKTKGVQHFASLWMRVDSAADDVLQFDNMSNRPITGTTNWNHYAIVLDVPENSAVISFGVQLSGPGQVWMDHVVFEEVDESVPSTNLEMPGELLDEPVNLSFEEELQK ... not soluble
MPLHQVVEPAFYIVVVLDLVSGRLNGHDKDTLGLAQQLANRNSGGGAVVAIAFGELKDDSLNKAGVDRLIHINDEQYDQYNPEQRCNDLQGIIGELDPQHILLPDSINGGGDLGRRLAAALQQRPACGVWKLNDDTVVCR ... not soluble

###

assay: soluble on expression in E. coli; label from the status in PepcDB or PDB records
readout-type: soluble on expression in E. coli

MDITPALTEMELDHKPTCETVPGLPQKKHYRQRAHSNPHSDHDIEYPLTPNHMDWTKYYGDYTKGRQVDFADIGCGYGGLLMRLSPKYPDNLMIGMEIRVKVSDYVNEKIQALRKHHAEAGHYRNVAVLRSNAMKYMPNYFHKGQLSKMFFLFPDPHFKNKKHKWRIITPTLLSEYAYVLREGGIIYTITDVKDLHEWMVKHLSEHPLFERLTEEEMKKDPIVEMLFESTEEGQKVTRNDGGKWPAIFRRLPNPAL ... not soluble
PRRTDADGEKMLAYLNTLYADKQAFELRADSLRKEVRQRLGIDTLLAQCVNSTPILSKIRKFDGYTVQNFALETLPGLYVCGSVYTPQSKGKHALIICPNGHFGGGRYREDQQQRMGTLARMGAVCVDYDLFGWGESILQVGSTAHRSSAAHTIQAMNGLLILDYMLASRKDIDTKRIGANGGSGGGTHTVLLTTLDDRFTASAPVVSLASHFDGGCPCESGMPIQLSAGGTCNAELAATFAPRPQLVVSDGGDWTASVPALEFPYLQRIYGFYDAKDNVTNVHLPKEKHDFGPNKRNAVYDFFAEVFD ... not soluble
MITLPTGTKIWIIAGITDMRCGFNGLASKVQNTLKDDPFSGHIFVFRGRSGKMVKILWADRDGLCLFAKRLAGDPGRESAPDASSVIHATGGDRVATSQTDRTAWHPDITRDKTRE ... not soluble

###

assay: soluble on expression in E. coli; label from the status in PepcDB or PDB records
readout-type: soluble on expression in E. coli

MFFMYFTNYGYRLNQIKKGSDQHWLFLPGGPGLGSEYLASFCDKLTLQGTVSLVDFPKDGNNSEGQLDFVSWQEGLISLLKSLNKPILVTHSFSGMFTLNFPEIENHLSGLVLMNTTTTNSFFQHVNEMRQKHNLPDLVPAASQYHLYPSNETYKKFWDTYKHYCFTQEELPIGEQMMELFAYNNESYHYAIEHFYNDFHYKWHPQTIPTMTIASELDYICPPAIFIQDKNFQCQNVINKVIYKAGHCPWILHLEQVQKCFDEFSGMIQEINIERIL ... not soluble
MGSDKIHHHHHHAADHVKGDGKLTSKKISVADYNEIKVDGVIDFNYEQSDDPSTVEVTVDQNLHPYVNIEVKDRVLTIAFKGAKVDHFTKFIVKTNSKWLAAAKVSGNANFMVNSPLTGDETVIKANANSLVQLKETVTVGKLDLNVSGSANMVVNHLEADKIECDIDGSGSITIKKGNAKEGDYSIVSSGDIHAFGLAVPQLSCKVTGNGLAEVHATDNLKANVVGKGNIRYKGPTAVQQRIIGKGTVEEVKE ... not soluble
MSAKGKHVVVIGGGDTGADCITTSVRHGAKSITQFDINREKSNERPDNNPWPLFPIVHTVEDGHKEAAAVYGKDPRAYQVMTTKFVGDAEGHVKEIHTISVETTVHPDGSKTRVEIPGTEKVWPADLVFLAVGFTGPEEQLVRELELETDTRSNIKAEYGKYETSLEGVFAAGDNRRGQSLVVWAIHEGREAARECDKYLMGLEHHHHHH ... not soluble
